- System: MCF-7 cells
- runDescription: In vitro test of cell activity (MCF-7 cells, insulin stimulation, ELISA-One fluorescence)
- Format: cell-based
- measurementConditions: Homo sapiens, MCF7, MCF-7 cells; read-out: IC50 p-p70S6K
Listing of entries alongside the reported IC50.

# input IC50 for O=c1ccnc2ccc(-c3cnc(Cl)c(NS(=O)(=O)c4ccccc4F)c3)cn12 ?
# output > 250 nM

# input Queued: COc1ncc(-c2ccc3nccc(=O)n3c2)cc1NS(=O)(=O)c1ccccc1C
# output 100 to 250 nM

# input Queued: COc1ncc(-c2ccc3nccc(=O)n3c2)cc1NS(=O)(=O)c1ccc(Cl)cc1
# output 100 to 250 nM

# input Queued: COc1ncc(-c2ccc3ncc(OC)c(=O)n3c2)cc1NS(=O)(=O)c1ccc(F)cc1F
# output 50 to 100 nM

# input Queued: COc1ncc(-c2ccc3ncc(Cl)c(=O)n3c2)cc1NS(=O)(=O)c1ccc(C)cc1Cl
# output ≤ 50 nM

# input Queued: COc1ncc(-c2ccc3ncc(Cl)c(=O)n3c2)cc1NS(=O)(=O)c1cccc(Cl)c1
# output ≤ 50 nM

# input Queued: COc1ncc(-c2ccc3ncc(OC)c(=O)n3c2)cc1NS(=O)(=O)c1ccccc1Cl
# output ≤ 50 nM

# input Queued: COc1ncc(-c2ccc3ncc(F)c(=O)n3c2)cc1NS(=O)(=O)c1ccc(C#N)cc1
# output 50 to 100 nM

# input Queued: COc1ncc(-c2ccc3ncc(C)c(=O)n3c2)cc1NS(=O)(=O)c1cccc(F)c1
# output 100 to 250 nM

# input Queued: COc1ncc(-c2ccc3ncc(Cl)c(=O)n3c2)cc1NS(=O)(=O)c1ccccc1Cl
# output 50 to 100 nM

# input Queued: COc1ccc(S(=O)(=O)Nc2cc(-c3ccc4nccc(=O)n4c3)cnc2OC)cc1
# output 100 to 250 nM

# input Queued: CCOc1cnc2ccc(-c3cnc(OC)c(NS(=O)(=O)c4ccc(F)cc4F)c3)cn2c1=O
# output 100 to 250 nM
